Give protein stability index for every item shown.
B1: SLC6A17 (parent)
chain: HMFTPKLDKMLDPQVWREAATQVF

- Variants of: B1
- ASSAY_TEXT: protein stability index of a GFP-peptide fusion (GPS, HEK-293T) (PSI 1-6); higher = more stable;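 further: lentivirally expressed fusions sorted by FACS into six bins by GFP to DsRed ratio, PSI derived from sequencing read proportions per bin multiplied by bin number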
- EXPERIMENTAL_SETUP: c terminus: a fixed tail appended
Answers are plain numbers.

Answer for every listed entry: what is its protein stability index? The entries follow.
1. A20D
2. D12H
3. M2C
4. Q14P
5. Q14E
6. V15Q
7. P13F

2.24
1.66
2.01
1.63
2.41
1.89
1.67

Answer for every listed entry: what is its protein stability index? The entries follow.
1. L11N
2. T4L
3. W16I
4. P13K
5. P13D
6. R17D
7. P13C

2.29
2.69
2.33
2.34
1.79
2.46
1.82
